Values were extracted from paper PMC6820745.

Provide the reported koff of each item.
- assay_target: T1, hen egg lysozyme (Gallus gallus (hen), UniProt P00698)
- T1 construct: hen egg lysozyme (lysozyme C), bought from Wako Pure Chemical; also called HEL; source: bought: Wako Pure Chemical (Cat. No. 126-02671), used without further purification
- T1 sequence (P00698 19-147): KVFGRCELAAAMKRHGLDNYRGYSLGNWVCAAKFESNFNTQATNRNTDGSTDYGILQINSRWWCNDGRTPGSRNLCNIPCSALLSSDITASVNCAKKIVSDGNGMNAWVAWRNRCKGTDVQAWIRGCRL
- protocol_notes: SPR; Biacore T200; HEL immobilised on CM5 chip (200 RU); VHH flowed over; 25 °C; PBS with 0.005% Tween 20; global fit to a 1:1 binding model
- condition_summary: both partners purified
State just the number; it will be interpreted in s⁻¹.

Incoming: Any idea what its koff is? The binder is D3-L11 P104A (VHH, as the VHH chain of m2 with the stated change; source: E. coli BL21(DE3), purified (Ni-NTA, SEC)) VHH: DVQLVESGGGSVQAGGSLRLSCAASGSTDSIEYMTWFRQAPGKAREGVAALYTHTGNTYYTDSVKGRFTISQDKAKNMAYLRMDSVKSEDTAIYTCGATRKYVAVRFALDQSSYDYWGQGTQVTVSS
Outgoing: 0.226

Incoming: Let us now turn to D3-L11 Y52A (VHH, as the VHH chain of m2 with the stated change; source: E. coli BL21(DE3), purified (Ni-NTA, SEC)) VHH: DVQLVESGGGSVQAGGSLRLSCAASGSTDSIEYMTWFRQAPGKAREGVAALATHTGNTYYTDSVKGRFTISQDKAKNMAYLRMDSVKSEDTAIYTCGATRKYVPVRFALDQSSYDYWGQGTQVTVSS
Outgoing: 0.128

Incoming: What do you get for D3-L11 E32A (VHH, as the VHH chain of m2 with the stated change; source: E. coli BL21(DE3), purified (Ni-NTA, SEC)) VHH: DVQLVESGGGSVQAGGSLRLSCAASGSTDSIAYMTWFRQAPGKAREGVAALYTHTGNTYYTDSVKGRFTISQDKAKNMAYLRMDSVKSEDTAIYTCGATRKYVPVRFALDQSSYDYWGQGTQVTVSS ?
Outgoing: 0.012
